test-target: T1, recombinant C-terminal ApoE fragment G200-HIS (ApoE-G200-H299-10xHIS) (human, UniProt P02649 218-317)
T1 construct: also called G200-HIS fragment
T1 sequence (P02649 other isoform, or with tags, fused parts or gaps limits assumed): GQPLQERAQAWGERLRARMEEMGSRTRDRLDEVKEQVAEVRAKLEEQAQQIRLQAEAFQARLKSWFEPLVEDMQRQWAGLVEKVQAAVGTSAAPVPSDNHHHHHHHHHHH
method-description: SPR (Biacore 8K), G200-HIS amine-coupled on CM5, antibody as analyte, bivalent analyte fit (ka1)
Attribute: kon

| binder | kon |
| --- | --- |
| 4E6, recombinant IgG2c antibody (antibody, V domains shown, also called recombinant anti-G200 antibody 4E6) VH: EVQLVESGGDLVKPGGSLKLSCAASGFTFSSYAMSWVRQSPEKRLEWVAEISGSGSRDHYTDSVTGRFTVSRDNAKNTLYLEMSSLRSEDTAIYYCARQLTGTDYYGTDYWGQGTSVTVSS VL: DVLMTQIPLSLPVSLGDQASISCRSSQSIVYSNGNTYLEWYLQRPGQSPKLLIYKVSNRFSGVPDRFSGSGSGTDFTLKISRVEAEDLGVYYCFQGSHLPYTFGGGTKLEIK | 8.15e+07 M⁻¹ s⁻¹ |
| 28F2, recombinant IgG2c antibody (antibody, V domains shown) VH: QIQLVQSGPDLKKPGETVKISCKASGYTFTNYAMHWMKQAPGKALKWMGWINTYTGEPTFADDFKGRFAFSLETSASTAYLQINSLKNEDMATYFCAREGYYDRSHYFDYWGQGTTLTVSS VL: DVLMTQTPLSLPVSLGDQASISCRSSLSLVHGDGNTYLEWYLQKPGQSPKLLIYKVSNRFSGVPDRFSGSGSGTDFTLKISRVEAEDLGVYYCLQGSHIPFTFGSGTKLEIK | 4.98e+06 M⁻¹ s⁻¹ |

Field: next binder
Task item: Using the record for 7B10, recombinant IgG2c antibody (antibody, V domains shown, also called 7610) VH: AVQLVESGGGLVKPGRSLKLSCAASGFTFSSYAMSWVRQFPDKRLDWVAEISSGGGSTNYLDTVTGRFTISRDNAKNTLYLEMNSLRSEDTAMYYCARQLVGTDYYGTDYWGQGTSVTVSS VL: DVLMTQTPLSLPVSLGDQASISCRSSQNIVYSNGNTYLEWYLQKPGQSPKLLIYKVSNRFSGVPDRFSGSGSGTDFTLKISRVEAEDLGVYYCFQGSHVPYTFGGGTKLEIK , report its kon.
Reply: 1.2e+06 M⁻¹ s⁻¹
